Would you mind telling me the reported absolute recovery of each entry?
assay: absolute recovery over mixed-bed multilayer solid-phase extraction; higher = better recovery; conditions: nanopure water; enrichment method: SPE
Enter your answer as a number in %; do not include the unit.

Could you share which absolute recovery value was measured for c1cncc(C2CCC[NH2+]2)c1 (centres undefined) ?
65.4

Tell me the measured absolute recovery of COc1nn(CSP(=S)(OC)OC)c(=O)s1 , please.
102

Look at this molecule and give its reported absolute recovery. CC1CC2C(C(O)CC3(C)C2CCC3(O)C(=O)CO)C2(C)C=CC(=O)C=C12 (centres undefined)
93.1

Data request, read-out absolute recovery, for O=c1c(-c2ccc(O)cc2)coc2cc([O-])cc(O)c12
99.2

Quick check: absolute recovery of CC1(C)CC(O)CC(C)(C)[NH+]1CCO [4-Hydroxy-1-(2-hydroxyethyl)-2-2-6-6-tetramethylpiperidine] ?
71.9

# input molecule: CC(C)Oc1cccc(NC(=O)c2ccccc2C(F)(F)F)c1 ; wanted: its absolute recovery
104

Recorded absolute recovery of CCCC(NC(C)C(=O)N1C(C(=O)[O-])CC2CCCCC21)C(=O)OCC (centres undefined) , please.
97.7

Any idea what its absolute recovery is? The molecule is CON(C)C(=O)Nc1ccc(Cl)c(Cl)c1
96.5

// query absolute recovery value for entry COc1ccc2c(c1)C13CCCCC1C(C2)[NH+](C)CC3 (centres undefined)
86.8
